Endpoint name: melting point

INSERT INTO measurements (smiles_representation, endpoint_name, measured_value) VALUES
  ('CCCc1c(OCCCCCCc2ccc(C(=O)CCCC(=O)O)cc2CCC(=O)O)ccc2c1OCCC2=O', 'melting point', '136 to 139 °C'),
  ('CCOC(=O)c1c(C)cc2cnc(-c3ccccc3F)nc2c1C', 'melting point', '98 to 100 °C'),
  ('O=C(Nc1cccnc1)N1CCN(c2cc(-c3ccc(F)cc3F)ncn2)CC1', 'melting point', '171 to 172 °C'),
  ('CCCCc1nc2c(c(C)c(C)n3nnnc23)n1CC(C)(C)NC(=O)NC1CCCCC1', 'melting point', '194 to 197 °C'),
  ('Cc1cc(-c2ccccc2)n2nc(C)c(C#N)c2n1', 'melting point', '175 to 177 °C');
